target entity: T1, TG2 (transglutaminase 2), tag-free (Homo sapiens, UniProt P21980 1-687)
T1 sequence: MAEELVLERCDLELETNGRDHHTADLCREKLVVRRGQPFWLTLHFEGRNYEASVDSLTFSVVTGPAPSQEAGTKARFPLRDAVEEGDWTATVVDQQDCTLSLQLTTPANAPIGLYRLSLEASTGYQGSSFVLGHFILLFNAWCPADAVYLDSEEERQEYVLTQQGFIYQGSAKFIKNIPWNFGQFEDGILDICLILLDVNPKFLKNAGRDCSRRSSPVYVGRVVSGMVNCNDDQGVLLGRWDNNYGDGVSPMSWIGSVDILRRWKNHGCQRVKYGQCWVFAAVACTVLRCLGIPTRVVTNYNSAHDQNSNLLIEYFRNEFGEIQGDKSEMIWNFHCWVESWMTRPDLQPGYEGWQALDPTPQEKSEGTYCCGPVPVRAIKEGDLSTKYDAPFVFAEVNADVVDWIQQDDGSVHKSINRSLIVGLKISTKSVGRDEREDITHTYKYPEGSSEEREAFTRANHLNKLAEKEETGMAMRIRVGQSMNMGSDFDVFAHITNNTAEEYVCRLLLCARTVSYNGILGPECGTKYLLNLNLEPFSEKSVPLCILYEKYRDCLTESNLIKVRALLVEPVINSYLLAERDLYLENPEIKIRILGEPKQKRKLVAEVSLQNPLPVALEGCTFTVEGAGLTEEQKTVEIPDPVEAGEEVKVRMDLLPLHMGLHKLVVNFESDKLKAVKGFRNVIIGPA
assay protocol: BLI
measured metric: pKd
One number for each entry, as −log10 of the molar value.

For reference, reported pKd for CCUGGUUUUUAAGGAGUGUCGCCAGAGUGCCGCGAAUGAAAAAC (structured_RNA) [43-mer RNA 3' End Biotin] stands at 7.06
